- TESTED TARGET: Inadl_1, Q8NI35
- Sequence (Q8NI35 113-229): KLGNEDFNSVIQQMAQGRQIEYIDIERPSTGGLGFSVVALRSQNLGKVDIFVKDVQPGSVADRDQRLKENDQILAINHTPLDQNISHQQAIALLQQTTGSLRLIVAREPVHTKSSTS
- ASSAY OVERVIEW: holdup assay
- Set-up: key: below the threshold = too weak to quantify, mostly under pKd 3.1 to 4
- TEST CONDITIONS: plain residues with an end cap or a label only (N-terminal biotin on a linker: ttds)

{"BINDER": "SGSRPSATVV [HPV73-E6, Q82005]", "pKd": "below the threshold"}
{"BINDER": "FHPLGADSQV [SLC2A1, P11166]", "pKd": 3.49}
{"BINDER": "RPLPRKVSQL [DOCK4, Q8N1I0]", "pKd": "below the threshold"}
